Target: T1, HLA-DR15 molecule (DRB1*1501) (human)
T1 chain 1: not shown
T1 chain 2: not shown
Assay: competition ELISA vs biotin-A3 152-166
pIC50: −log10 of the molar value.
The threshold is inclusive: pIC50 of exactly 6 counts as 1; values below receive -1.

>  <binder>
QQLLRREVYDFAFRD (modifications not checked) [E6 42-56]

>  <classification>
-1

$$$$
>  <binder>
SLYGTTLEQQYNKPL (modifications not checked) [E6 89-103]

>  <classification>
1

$$$$
>  <binder>
DLLIRCINCQKPLCPEEKQRHL (modifications not checked) [E6(105-126)]

>  <classification>
-1

$$$$
>  <binder>
MGTLGIVCPICSQKP (modifications not checked) [E7 84-98]

>  <classification>
1

$$$$
>  <binder>
MHGDTPTLHEYMLDLQPETT (modifications not checked) [E7(1-20)]

>  <classification>
1

$$$$
>  <binder>
TTLEQQYNKPLCDLL (modifications not checked) [E6 93-107]

>  <classification>
1

$$$$
>  <binder>
RDLCIVYRDGNPYAV (modifications not checked) [E6 55-69]

>  <classification>
1

$$$$
>  <binder>
LRREVYDFAFRDLCIVYRDGNPY (modifications not checked) [E6(45-67)]

>  <classification>
1

$$$$
>  <binder>
LRLCVQSTHVDIRTLEDLLMGTL (modifications not checked) [E7(65-87)]

>  <classification>
1

$$$$
>  <binder>
DLYCYEQLNDSSEEEDEIDG (modifications not checked) [E7(21-40)]

>  <classification>
-1

$$$$
>  <binder>
QQYNKPLCDLLIRCI (modifications not checked) [E6 97-111]

>  <classification>
-1

$$$$
>  <binder>
TLHEYMLDLQPETTDLYCYEQ (modifications not checked) [E7(7-27)]

>  <classification>
-1

$$$$

These measurements were taken from patent US20040170644A1.
